test system: RPMI-8226 leukemia; assay: NCI tumour cell line growth inhibition, 48 h
Where a SMILES comes first, the peptide text is derived from it. Residues, ends and D or L forms follow the SMILES beside them. *: point of attachment. Cbz = O=C(OCc1ccccc1)*
observation type: TGI

[[record]]
molecule = "COc1cc(/C=C/C(=O)c2c(-c3ccc(F)cc3)nc3sc(C)nn23)cc(OC)c1OC"
observation_type = "TGI"
data_value = "5.13 µM"

[[record]]
molecule = "Cc1ccccc1Nc1nc(NNC(=O)Cc2ccccc2)nc(NNC(=O)c2ccncc2)n1"
observation_type = "TGI"
data_value = "> 10 µM"

[[record]]
molecule = "COc1ccc(N=Nc2c(N)nn(C)c2N)cc1"
observation_type = "TGI"
data_value = "> 100 µM"

[[record]]
molecule = "CCOC(=O)CN(c1ccccc1)c1nc(=[N+](C)C)ss1"
observation_type = "TGI"
data_value = "55.5 µM"

[[record]]
molecule = "CC1(C)CCCCCCCCCC2CC2CCC(C)(C)C1=O (stereo not given)"
observation_type = "TGI"
data_value = "75.9 µM"

[[record]]
molecule = "C#CCOCn1cc(C)c(=O)[nH]c1=O"
observation_type = "TGI"
data_value = "> 100 µM"

[[record]]
molecule = "CNC(=O)c1cccc(C#Cc2cncnc2Nc2ccc(OCc3cccc(F)c3)c(Cl)c2)c1"
observation_type = "TGI"
data_value = "> 25 µM"

[[record]]
molecule = "COc1cc(C2c3cc4c(cc3OC(NCCO)C2C)OCO4)cc(OC)c1O (stereo not given)"
observation_type = "TGI"
data_value = "19 µM"

[[record]]
molecule = "COc1cc(C2CC(=O)Nc3c2c(C)nn3-c2nc3ccccc3[nH]2)cc(OC)c1O (stereo not given)"
observation_type = "TGI"
data_value = "12.5 µM"

[[record]]
molecule = "CCC(C)C(NC(=O)C(CC(C)C)NC(=O)CNC(=O)C(NC(=O)C1CCCN1C(=O)C(CC(C)C)NC(=O)C(N)Cc1ccccc1)C(C)CC)C(=O)NC(CC(C)C)C(N)=O (stereo not given) (H-FLPIGLIL-NH2; configuration not given here)"
observation_type = "TGI"
data_value = "> 75 µM"

[[record]]
molecule = "Nc1ncn([C@H]2C[C@H](OP(=O)(O)OC[C@H]3O[C@@H](n4cnc5c(=O)[nH]c(N)nc54)C[C@@H]3O)[C@@H](CO)O2)c(=O)n1"
observation_type = "TGI"
data_value = "> 100 µM"

[[record]]
molecule = "O=[N+]([O-])c1oc2ccc3ccccc3c2c1CCO"
observation_type = "TGI"
data_value = "22.2 µM"

[[record]]
molecule = "Cc1cccc(Cl)c1NC(=O)c1cnc(Nc2cc(N3CCOCC3)cc(S(C)(=O)=O)c2)s1"
observation_type = "TGI"
data_value = "> 10 µM"

[[record]]
molecule = "Cn1cc(-c2nnc(-c3ccc(Cl)cc3)[nH]c2=O)c2ccccc21"
observation_type = "TGI"
data_value = "44.7 µM"

[[record]]
molecule = "CC(C)C[C@@H](C=O)NC(=O)[C@H](CC(C)C)NC(=O)[C@H](CC(C)C)NC(=O)OCc1ccccc1 (Cbz-Leu-Leu-Leu-aldehyde)"
observation_type = "TGI"
data_value = "13.8 µM"

[[record]]
molecule = "C[N+]12C=CC=C1C(N1CCCC1)c1scc(-c3ccc(F)cc3)c12 (stereo not given)"
observation_type = "TGI"
data_value = "> 100 µM"

[[record]]
molecule = "COc1cc(O)c2c(c1)C(=O)C1=C(C2=O)C(O)C[C@@](C)(O)C1 (stereo not given in full)"
observation_type = "TGI"
data_value = "6.52 µM"

[[record]]
molecule = "O=C(O)Cc1ccc(N=Nc2c(O)c(C(=O)O)cc3ccccc23)cc1"
observation_type = "TGI"
data_value = "> 100 µM"

[[record]]
molecule = "COc1cc(CCC(=O)NC[C@@H](O)c2ccccc2)ccc1O"
observation_type = "TGI"
data_value = "> 100 µM"

[[record]]
molecule = "O=C1/C(=C/c2ccc(O)c(O)c2)CC/C1=C\\c1ccc(O)c(O)c1"
observation_type = "TGI"
data_value = "76.3 µM"

